The origin of these recorded values is ChEMBL document CHEMBL5257016.

assay_summary: Stability of compound in human plasma assessed as half life at 1 uM by LC-MS/MS analysis
Format: ADME, cell-free
measurement_kind: half-life at 1 µM

Item: O=C(OCC1CCCO1)c1cccc(CN2CCCC(Nc3ccc4[nH]ncc4c3)C2)c1 (stereo unspecified) | half-life at 1 µM: < 5 min

###

tested_target: UniProt:O75116
Sequence (O75116 whole entry): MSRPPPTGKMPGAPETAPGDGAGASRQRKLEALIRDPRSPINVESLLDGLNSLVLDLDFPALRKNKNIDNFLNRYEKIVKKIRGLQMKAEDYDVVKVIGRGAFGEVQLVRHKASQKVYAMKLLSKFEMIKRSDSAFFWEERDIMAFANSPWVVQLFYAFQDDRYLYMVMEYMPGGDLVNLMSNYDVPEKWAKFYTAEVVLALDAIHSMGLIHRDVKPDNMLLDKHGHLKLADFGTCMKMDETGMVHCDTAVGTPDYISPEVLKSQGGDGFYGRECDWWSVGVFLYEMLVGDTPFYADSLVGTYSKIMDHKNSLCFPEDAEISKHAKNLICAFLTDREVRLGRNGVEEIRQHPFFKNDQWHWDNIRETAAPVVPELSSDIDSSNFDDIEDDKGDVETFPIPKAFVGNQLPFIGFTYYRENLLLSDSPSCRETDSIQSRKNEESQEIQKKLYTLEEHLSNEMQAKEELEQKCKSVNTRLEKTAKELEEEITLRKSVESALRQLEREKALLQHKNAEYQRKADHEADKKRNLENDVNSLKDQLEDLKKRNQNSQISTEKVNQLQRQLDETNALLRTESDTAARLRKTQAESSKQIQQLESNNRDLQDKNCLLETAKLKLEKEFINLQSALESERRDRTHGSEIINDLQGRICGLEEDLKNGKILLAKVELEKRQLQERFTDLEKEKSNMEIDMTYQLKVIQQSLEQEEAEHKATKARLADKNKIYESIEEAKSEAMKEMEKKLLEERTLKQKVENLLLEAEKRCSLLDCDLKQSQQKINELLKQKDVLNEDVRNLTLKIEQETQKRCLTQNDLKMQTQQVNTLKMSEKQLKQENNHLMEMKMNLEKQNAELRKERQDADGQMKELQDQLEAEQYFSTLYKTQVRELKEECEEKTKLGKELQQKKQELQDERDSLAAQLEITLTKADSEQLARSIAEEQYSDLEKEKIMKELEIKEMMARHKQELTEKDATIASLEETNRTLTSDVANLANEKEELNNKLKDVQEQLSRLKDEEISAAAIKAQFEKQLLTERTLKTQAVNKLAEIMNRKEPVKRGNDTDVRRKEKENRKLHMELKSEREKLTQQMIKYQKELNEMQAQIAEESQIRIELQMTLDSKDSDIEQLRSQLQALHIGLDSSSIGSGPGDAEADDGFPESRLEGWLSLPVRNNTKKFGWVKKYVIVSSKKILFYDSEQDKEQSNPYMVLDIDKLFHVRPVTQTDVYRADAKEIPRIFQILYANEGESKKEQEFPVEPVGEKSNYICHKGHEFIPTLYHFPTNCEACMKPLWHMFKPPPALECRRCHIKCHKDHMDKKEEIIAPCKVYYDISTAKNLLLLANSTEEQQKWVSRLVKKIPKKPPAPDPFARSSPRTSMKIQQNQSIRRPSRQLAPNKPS
assay_summary: Inhibition of human recombinant ROCK2 using 5FAM-AKRRRLSSLRA-COOH as substrate preincubated for 10 mins followed by substrate addition in presence of ATP and measured after 45 mins by TR-FRET assay
measurement_kind: IC50 (nM)
Field: numeric (nM). Do not append units.

Item: COc1nc(Nc2ccc3[nH]ncc3c2)nc(N2CCNCC2)n1 | IC50: 20
